Each entry below carries its reported Ki.
# target.desc: PSG (PSD-95)
# protocol.description: FP displacement (competition) of FITC-15 AA CRIPT by library peptide, IC50 and Ki
# cond: read-out: Ki (µM), PSG; FP displacement of FITC-15 AA CRIPT probe by PSD library peptide; protein PSG (wild type)
Express your answer in µM, writing the number without its unit.

>>> measured_number("CC[C@H](C)[C@H](NC(=O)[C@H](CCCCN)NC(=O)[C@@H]1CCCN1C(=O)[C@H](CC(C)C)NC(=O)[C@H](CCCNC(=N)N)NC(=O)[C@H](Cc1c[nH]cn1)NC(=O)[C@H](CO)NC(=O)CNC(=O)[C@H](CC(=O)O)NC(=O)[C@H](Cc1ccc(O)cc1)NC(C)=O)C(=O)N[C@@H](CCCCN)C(=O)N[C@@H](CCC(=O)O)C(=O)N[C@H](C(=O)N[C@H](C(=O)N[C@H](C(=O)O)C(C)C)[C@@H](C)O)[C@@H](C)O")
2.43

Problem: // Ki lookup, key: CC(=O)N[C@@H](Cc1ccc(O)cc1)C(=O)N[C@@H](CO)C(=O)N[C@@H](CO)C(=O)N[C@H](C(=O)N[C@@H](CO)C(=O)N1CCC[C@H]1C(=O)N[C@@H](CCC(N)=O)C(=O)N[C@@H](CO)C(=O)N[C@H](C(=O)N[C@@H](CC(=O)O)C(=O)N[C@@H](CCCCN)C(=O)N[C@@H](CO)C(=O)N[C@@H](CO)C(=O)N[C@H](C(=O)N[C@H](C(=O)O)C(C)C)[C@@H](C)O)[C@@H](C)O)[C@@H](C)O
Result: 765

Problem: // Ki lookup, key: CC(=O)N[C@@H](Cc1ccc(O)cc1)C(=O)N[C@@H](CCCNC(=N)N)C(=O)N[C@@H](CCC(N)=O)C(=O)N1CCC[C@H]1C(=O)N[C@@H](CC(C)C)C(=O)N1CCC[C@H]1C(=O)N[C@@H](CC(=O)O)C(=O)N[C@@H](CO)C(=O)N[C@@H](CC(N)=O)C(=O)N1CCC[C@H]1C(=O)N[C@@H](CCC(=O)O)C(=O)N[C@@H](CCC(=O)O)C(=O)N[C@@H](CO)C(=O)N[C@@H](CO)C(=O)N[C@H](C(=O)O)C(C)C
Result: 269

* * *

# target.desc: PDZ3 (PSD-95) (Homo sapiens, UniProt P78352)
# Sequence (P78352 313-393 limits assumed): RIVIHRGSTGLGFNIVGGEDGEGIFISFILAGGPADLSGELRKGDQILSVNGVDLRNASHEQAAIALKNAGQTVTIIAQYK
# protocol.description: FP displacement (competition) of FITC-15 AA CRIPT by library peptide, IC50 and Ki
# cond: Ki (µM), PDZ3, FP displacement of FITC-15 AA CRIPT probe by library peptide
Ends that are not written are not given here.
measurement.kind: Ki (µM)
Express your answer in µM, writing the number without its unit.

Problem: // Ki lookup, key: Ac-YSSPAQSVTPVQTVV [MTMR2]
Result: 139

* * *

Each entry below carries its reported pKi.
# target.desc: PSG (PSD-95)
# protocol.description: FP displacement (competition) of FITC-15 AA CRIPT by library peptide, IC50 and Ki
# cond: FP displacement of 5 nM FITC-15 AA CRIPT by non-labeled acetylated peptide, room temperature, Ki from IC50, technical triplicates; PSG
pKi: −log10 of the molar value.

The cases that follow already have their pKi on record.
>>> result("CC[C@H](C)[C@H](NC(=O)[C@H](CO)NC(=O)[C@H](CCC(N)=O)NC(=O)[C@H](CCCNC(=N)N)NC(=O)[C@H](CCCCN)NC(=O)[C@H](CO)NC(=O)[C@H](CC(=O)O)NC(=O)[C@@H]1CCCN1C(=O)[C@H](Cc1ccc(O)cc1)NC(C)=O)C(=O)N[C@@H](CC(C)C)C(=O)N[C@@H](Cc1ccccc1)C(=O)N[C@@H](CO)C(=O)N[C@H](C(=O)N[C@@H](CCC(=O)O)C(=O)N[C@H](C(=O)O)C(C)C)[C@@H](C)O")
"> 4.12"
>>> result("CC[C@H](C)[C@H](NC(=O)[C@H](CCCCN)NC(=O)[C@@H]1CCCN1C(=O)[C@H](CC(C)C)NC(=O)[C@H](CCCNC(=N)N)NC(=O)[C@H](Cc1c[nH]cn1)NC(=O)[C@H](CO)NC(=O)CNC(=O)[C@H](CC(=O)O)NC(=O)[C@H](Cc1ccc(O)cc1)NC(C)=O)C(=O)N[C@@H](CCCCN)C(=O)N[C@@H](CCC(=O)O)C(=O)N[C@H](C(=O)N[C@H](C(=O)N[C@H](C(=O)O)C(C)C)[C@@H](C)O)[C@@H](C)O")
"> 4.12"

Now consider a different molecule.
Problem: Checklist item: pKi tested on PSG (PSD-95), entry CC(=O)N[C@@H](Cc1ccc(O)cc1)C(=O)N[C@@H](Cc1c[nH]cn1)C(=O)N1CCC[C@H]1C(=O)N[C@@H](Cc1c[nH]cn1)C(=O)N1CCC[C@H]1C(=O)N[C@@H](Cc1c[nH]cn1)C(=O)N1CCC[C@H]1C(=O)N[C@@H](Cc1c[nH]cn1)C(=O)N[C@@H](CO)C(=O)N[C@@H](Cc1c[nH]cn1)C(=O)N[C@@H](CO)C(=O)N[C@H](C(=O)N[C@H](C(=O)N[C@@H](CCCNC(=N)N)C(=O)N[C@H](C(=O)O)C(C)C)[C@@H](C)O)[C@@H](C)O , value?
Result: > 4.12

* * *

# target.desc: PSG G322A G335A (PSD-95)
# protocol.description: FP displacement (competition) of FITC-15 AA CRIPT by library peptide, IC50 and Ki
# cond: read-out: Ki (µM), PSG G322A G335A; FP displacement of FITC-15 AA CRIPT probe by PSD library peptide; protein PSG G322A G335A
Ends that are not written are not given here.
measurement.kind: Ki

The cases that follow already have their Ki on record.
>>> result("Ac-YEPPEPKKSRRSVLL [CDC42]")
"381 µM"
>>> result("Ac-YYETGSLSFAGDERI [SEZ6]")
"590 µM"

Problem: Checklist item: Ki tested on PSG G322A G335A (PSD-95), entry Ac-YERAANREEALEWEF [CUX2] , value?
Result: 351 µM

* * *

Each entry below carries its reported Ki.
# target.desc: PSG G322A (PSD-95)
# protocol.description: FP displacement (competition) of FITC-15 AA CRIPT by library peptide, IC50 and Ki
# cond: read-out: Ki (µM), PSG G322A; FP displacement of FITC-15 AA CRIPT probe by PSD library peptide; protein PSG G322A
Ends that are not written are not given here.
Express your answer in µM, writing the number without its unit.

The cases that follow already have their Ki on record.
>>> measured_number("Ac-YVMQDESFPASKIEL [MAP1B]")
396
>>> measured_number("Ac-YEKAASREEPIEWEF [CUX1]")
679

Now consider a different substance.
Problem: // Ki lookup, key: Ac-YERAANREEALEWEF [CUX2]
Result: 304

* * *

# target.desc: PSG G322A (PSD-95)
# protocol.description: FP displacement (competition) of FITC-15 AA CRIPT by library peptide, IC50 and Ki
# cond: read-out: Ki (µM), PSG G322A; FP displacement of FITC-15 AA CRIPT probe by PSD library peptide; protein PSG G322A
Consider the cut-off 300 µM. If the recorded Ki is strictly smaller, the label is t; if not, the label is f.

>>> answer_label("CC(=O)N[C@@H](Cc1ccc(O)cc1)C(=O)N[C@@H](CC(C)C)C(=O)N[C@@H](C)C(=O)N[C@@H](CC(=O)O)C(=O)N[C@@H](CCC(=O)O)C(=O)N[C@H](C(=O)N[C@@H](CO)C(=O)N[C@@H](C)C(=O)N[C@@H](CO)C(=O)N[C@@H](CC(C)C)C(=O)N[C@@H](C)C(=O)N[C@@H](CCCCN)C(=O)N[C@@H](CCC(N)=O)C(=O)NCC(=O)N[C@@H](CC(C)C)C(=O)O)C(C)C")
"t"

Problem: Please check: Ki for CC(=O)N[C@@H](Cc1ccc(O)cc1)C(=O)N[C@@H](Cc1c[nH]cn1)C(=O)N[C@@H](Cc1c[nH]cn1)C(=O)N[C@H](C(=O)N[C@@H](CO)C(=O)N[C@@H](Cc1ccc(O)cc1)C(=O)N[C@H](C(=O)N[C@@H](C)C(=O)N[C@@H](CO)C(=O)N[C@@H](CCCCN)C(=O)N[C@H](C(=O)N[C@@H](CCC(=O)O)C(=O)N[C@H](C(=O)N[C@H](C(=O)N[C@H](C(=O)O)C(C)C)[C@@H](C)O)C(C)C)[C@@H](C)O)[C@@H](C)O)[C@@H](C)O , strictly under 300 µM or not?
Result: f

Problem: Please check: Ki for CC[C@H](C)[C@H](NC(=O)[C@H](CCCNC(=N)N)NC(=O)[C@H](CCCNC(=N)N)NC(=O)[C@H](CCC(N)=O)NC(=O)[C@H](CC(N)=O)NC(=O)[C@H](CC(C)C)NC(=O)CNC(=O)[C@H](CO)NC(=O)[C@H](Cc1ccc(O)cc1)NC(=O)[C@H](CC(C)C)NC(=O)[C@H](CC(=O)O)NC(=O)[C@H](CCCNC(=N)N)NC(=O)[C@H](CCC(N)=O)NC(=O)CNC(=O)[C@H](Cc1ccc(O)cc1)NC(C)=O)C(=O)O , strictly under 300 µM or not?
Result: f
